Molecular target: Glucocorticoid receptor (Homo sapiens) (UniProt P04150)
Sequence (P04150 whole entry, looked up): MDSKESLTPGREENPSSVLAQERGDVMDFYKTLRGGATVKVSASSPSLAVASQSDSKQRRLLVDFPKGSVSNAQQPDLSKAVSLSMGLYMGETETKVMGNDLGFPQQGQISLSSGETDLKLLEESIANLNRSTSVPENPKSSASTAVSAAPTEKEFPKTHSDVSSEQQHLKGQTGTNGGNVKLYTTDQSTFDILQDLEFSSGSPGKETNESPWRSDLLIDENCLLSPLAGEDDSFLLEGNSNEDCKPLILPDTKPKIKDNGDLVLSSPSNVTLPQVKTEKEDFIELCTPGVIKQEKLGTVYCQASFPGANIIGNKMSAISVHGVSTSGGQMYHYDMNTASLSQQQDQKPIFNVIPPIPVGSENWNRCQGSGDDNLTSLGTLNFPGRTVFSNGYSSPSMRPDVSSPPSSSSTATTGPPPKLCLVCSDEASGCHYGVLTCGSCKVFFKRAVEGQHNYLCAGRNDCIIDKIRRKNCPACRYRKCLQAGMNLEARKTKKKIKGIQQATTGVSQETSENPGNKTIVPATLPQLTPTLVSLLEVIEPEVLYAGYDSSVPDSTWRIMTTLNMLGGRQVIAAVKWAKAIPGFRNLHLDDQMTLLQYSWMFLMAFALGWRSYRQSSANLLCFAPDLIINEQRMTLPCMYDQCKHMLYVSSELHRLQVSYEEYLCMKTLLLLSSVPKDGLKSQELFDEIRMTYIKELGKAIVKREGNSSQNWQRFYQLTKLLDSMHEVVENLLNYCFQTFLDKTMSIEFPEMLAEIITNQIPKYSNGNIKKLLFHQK
Test: qHTS assay for small molecule agonists of glucocorticoid receptor signaling (AID 588532);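 also: 100% = dexamethasone at 0.1 µM and 0% = DMSO only wells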
Settings: HeLa MMTV-bla, beta-lactamase ratio, agonist, 18 h; hits give high values, percent of dexamethasone control, DMSO zero
Results filed as inconclusive are left out.
Provide the recorded activation for the entries that follow.
Entry rule: numbers only, all in %.

[in] Look up activation with Glucocorticoid receptor (Homo sapiens) (UniProt P04150) for this molecule: C1=Cc2cccc3cccc1c23
[out] -9.46

[in] Look up activation with Glucocorticoid receptor (Homo sapiens) (UniProt P04150) for this molecule: C/C(=N\C(N)=O)N(C)Cc1ccc(Cl)nc1
[out] -1.3

[in] Look up activation with Glucocorticoid receptor (Homo sapiens) (UniProt P04150) for this molecule: CCCSC(=O)N(CCC)CCC
[out] -2.67

[in] Look up activation with Glucocorticoid receptor (Homo sapiens) (UniProt P04150) for this molecule: ClCc1ccccc1Cl
[out] -3.29

[in] Look up activation with Glucocorticoid receptor (Homo sapiens) (UniProt P04150) for this molecule: FC(F)C(F)(F)OCC(Cn1cncn1)c1ccc(Cl)cc1Cl (centres undefined)
[out] 3.91

[in] Look up activation with Glucocorticoid receptor (Homo sapiens) (UniProt P04150) for this molecule: Clc1ccc(C(c2ccc(Cl)cc2)C(Cl)Cl)cc1
[out] -2.1

[in] Look up activation with Glucocorticoid receptor (Homo sapiens) (UniProt P04150) for this molecule: FC(F)(F)c1ccc(OCCCOc2c(Cl)cc(OCC=C(Cl)Cl)cc2Cl)nc1
[out] 9.84

[in] Look up activation with Glucocorticoid receptor (Homo sapiens) (UniProt P04150) for this molecule: O=[N+]([O-])c1ccc2ccc3cccc4ccc1c2c34
[out] -22

[in] Look up activation with Glucocorticoid receptor (Homo sapiens) (UniProt P04150) for this molecule: Cc1ccccc1C(=O)Nc1cccc(OC(C)C)c1
[out] 2.19

[in] Look up activation with Glucocorticoid receptor (Homo sapiens) (UniProt P04150) for this molecule: O=C(O)C(F)(F)C(F)(F)C(F)(F)C(F)(F)C(F)(F)F
[out] 4.09

[in] Look up activation with Glucocorticoid receptor (Homo sapiens) (UniProt P04150) for this molecule: CSC1=N[C@@](C)(c2ccccc2)C(=O)N1Nc1ccccc1
[out] 0.812

[in] Look up activation with Glucocorticoid receptor (Homo sapiens) (UniProt P04150) for this molecule: CON(C)C(=O)Nc1ccc(Cl)c(Cl)c1
[out] -2.11

[in] Look up activation with Glucocorticoid receptor (Homo sapiens) (UniProt P04150) for this molecule: Brc1c(Br)c(Br)c(Br)c(Br)c1Br
[out] -0.0722

[in] Look up activation with Glucocorticoid receptor (Homo sapiens) (UniProt P04150) for this molecule: O=[N+]([O-])c1cc(C(F)(F)F)cc([N+](=O)[O-])c1Cl
[out] -2.51

[in] Look up activation with Glucocorticoid receptor (Homo sapiens) (UniProt P04150) for this molecule: O=[As](O)(O)O
[out] -5.56

[in] Look up activation with Glucocorticoid receptor (Homo sapiens) (UniProt P04150) for this molecule: CCC(C)(NC(=O)c1cc(Cl)c(C)c(Cl)c1)C(=O)CCl (centres undefined)
[out] -7.44

[in] Look up activation with Glucocorticoid receptor (Homo sapiens) (UniProt P04150) for this molecule: O=[N+]([O-])C(Br)Br
[out] -5.74

[in] Look up activation with Glucocorticoid receptor (Homo sapiens) (UniProt P04150) for this molecule: CC(C)Oc1cc(-n2nc(C(C)(C)C)oc2=O)c(Cl)cc1Cl
[out] 12

[in] Look up activation with Glucocorticoid receptor (Homo sapiens) (UniProt P04150) for this molecule: S=C([S-])NCCNC(=S)[S-].[Mn+2]
[out] -3.05

[in] Look up activation with Glucocorticoid receptor (Homo sapiens) (UniProt P04150) for this molecule: N#Cc1cc(Br)c(O)c(Br)c1
[out] 4.63

[in] Look up activation with Glucocorticoid receptor (Homo sapiens) (UniProt P04150) for this molecule: COP(=O)(OC)OC(Br)C(Cl)(Cl)Br (centres undefined)
[out] -8

[in] Look up activation with Glucocorticoid receptor (Homo sapiens) (UniProt P04150) for this molecule: COC(=O)C(C)Oc1ccc(Oc2ccc(Cl)cc2Cl)cc1 (centres undefined)
[out] -5.37

[in] Look up activation with Glucocorticoid receptor (Homo sapiens) (UniProt P04150) for this molecule: O=CNC(N1CCN(C(NC=O)C(Cl)(Cl)Cl)CC1)C(Cl)(Cl)Cl (centres undefined)
[out] -2.65

[in] Look up activation with Glucocorticoid receptor (Homo sapiens) (UniProt P04150) for this molecule: O=C1c2ccccc2C(=O)C1C(=O)C(c1ccccc1)c1ccc(Cl)cc1 (centres undefined)
[out] -5.26
